Just for reference, ChEMBL document CHEMBL3872232 is where these values come from.

test system: MDA-MB-231; test: Effect on Cdk2 mRNA expression in human MDA-MB-231 cells assessed as ratio of Cdk2 to GAPDH expression level at 5 uM after 24 hrs by RT-PCR method (reference value: 0.26); type: functional
property label: Ratio
Give the value as a plain number.

Ask | # input compound: CO[C@@H]1C(=O)N(C/C(C#N)=C/c2ccccc2)[C@@H]1c1ccc(C)cc1 ; wanted: its Ratio
Reply | 0.22

Ask | Please give the result for CO[C@@H]1C(=O)N(C/C(C#N)=C/c2ccccc2)[C@@H]1c1ccc(F)cc1 too.
Reply | 0.32

Ask | // next record COc1cc2c(c(OC)c1OC)-c1ccc(OC)c(=O)cc1[C@@H](NC(C)=O)CC2
Reply | 0.39

Ask | Same thing, different compound: CCOC(=O)/C(=C/c1ccccc1)CN1C(=O)[C@@H](OC)[C@H]1c1ccccc1Br
Reply | 0.18

###

experiment: Antiproliferative activity against human MDA-MB-231 cells after 48 hrs by MTT assay; type: functional, cell-based; details: MDA-MB-231, 48 h
property label: IC50
Note: a bare number is incomplete; add the unit.

Ask | // IC50 lookup, key: COC(=O)/C(=C/c1ccccc1)CN1C(=O)[C@@H](OC)[C@H]1c1ccccc1
Reply | 11.1 µM

Ask | Now this one: CCOC(=O)/C(=C/c1ccccc1)CN1C(=O)[C@@H](OC)[C@H]1c1ccccc1Br
Reply | 6.86 µM

Ask | Another compound to check: COC(=O)/C(=C/c1ccccc1)CN1C(=O)[C@@H](OC)[C@H]1c1ccccc1C(F)(F)F
Reply | 17.6 µM

Ask | COC(=O)/C(=C/c1ccccc1)CN1C(=O)[C@@H](OC)[C@H]1c1cccc([N+](=O)[O-])c1 , same question.
Reply | 14.4 µM

Ask | Let us now turn to CO[C@@H]1C(=O)N(C/C(C#N)=C/c2ccccc2)[C@@H]1c1ccccc1Br
Reply | 10.7 µM

Ask | Now consider CCOC(=O)/C(=C/c1ccccc1)CN1C(=O)[C@@H](OC)[C@H]1c1ccc(Cl)cc1 and answer again.
Reply | 11.1 µM

Ask | // query: COC(=O)/C(=C/c1ccccc1)CN1C(=O)[C@@H](OC)[C@H]1c1cccc(F)c1
Reply | 34.4 µM

###

experiment: Cell cycle arrest in human MCF7 cells assessed as accumulation at sub-G1 phase at 5 uM after 24 hrs by propidium iodide staining based flow cytometry (reference value: 3.58%); type: functional
property label: Activity (%)
Write down the numeric answer in % and omit the unit.

Ask | Quick check: Activity of CO[C@@H]1C(=O)N(C/C(C#N)=C/c2ccccc2)[C@@H]1c1ccc(C)cc1 ?
Reply | 2.22

Ask | Param item: CO[C@@H]1C(=O)N(C/C(C#N)=C/c2ccccc2)[C@@H]1c1ccc(F)cc1
Reply | 2.83

Ask | Same thing, different molecule: COc1cc2c(c(OC)c1OC)-c1ccc(OC)c(=O)cc1[C@@H](NC(C)=O)CC2
Reply | 7.4

Ask | Entry to check: CCOC(=O)/C(=C/c1ccccc1)CN1C(=O)[C@@H](OC)[C@H]1c1ccccc1Br
Reply | 12.9

###

Provide the recorded pIC50 for the entries that follow.
experiment: Antiproliferative activity against human mammary epithelial cells after 48 hrs by MTT assay; type: cell-based, Epithelial cell; conditions: Homo sapiens, Epithelial cell, 48 h; read-out: IC50
Quick note: pIC50 means taking -log10 of the concentration in moles per liter.

Ask | Quick one: pIC50 for COC(=O)/C(=C/c1ccccc1)CN1C(=O)[C@@H](OC)[C@H]1c1cccc(C(F)(F)F)c1 ?
Reply | 4.14

Ask | Next: CCOC(=O)/C(=C/c1ccccc1)CN1C(=O)[C@@H](OC)[C@H]1c1ccccc1Br
Reply | 4.18

Ask | COC(=O)/C(=C/c1ccccc1)CN1C(=O)[C@@H](OC)[C@H]1c1cccc(F)c1 ?
Reply | 4.42

Ask | And what about the compound COc1cc2c(c(OC)c1OC)-c1ccc(OC)c(=O)cc1[C@@H](NC(C)=O)CC2 [COLCHICINE] ?
Reply | 5.03

Ask | Thanks! And COC(=O)/C(=C/c1ccccc1)CN1C(=O)[C@@H](OC)[C@H]1c1ccc(Cl)cc1 ?
Reply | 4.42

Ask | # iterate: COC(=O)/C(=C/c1ccccc1)CN1C(=O)[C@@H](OC)[C@H]1c1ccc(Cl)cc1Cl
Reply | 4.15

Ask | // same read-out, input: COC(=O)/C(=C/c1ccccc1)CN1C(=O)[C@@H](OC)[C@H]1c1ccc(F)cc1
Reply | 4.56

###

tested on: MDA-MB-231; assay: Induction of apoptosis in human MDA-MB-231 cells assessed as necrotic cells at 5 uM after 24 hrs by Annexin V-FITC/propidium iodide staining based flow cytometry (reference value: 1.3%); format: functional
Record form. Attribute: Activity. Fill in for each entry.
Answer with a number only, understood to be in %.

Ask | Looking for the measured Activity of CO[C@@H]1C(=O)N(C/C(C#N)=C/c2ccccc2)[C@@H]1c1ccc(C)cc1 , can you help?
Reply | 1.4

Ask | Another compound to check: COc1cc2c(c(OC)c1OC)-c1ccc(OC)c(=O)cc1[C@@H](NC(C)=O)CC2 [COLCHICINE]
Reply | 0.9

Ask | Let us now turn to CCOC(=O)/C(=C/c1ccccc1)CN1C(=O)[C@@H](OC)[C@H]1c1ccccc1Br
Reply | 0.9

Ask | And the next one, CO[C@@H]1C(=O)N(C/C(C#N)=C/c2ccccc2)[C@@H]1c1ccc(F)cc1 ?
Reply | 1.6

###

tested on: MDA-MB-231; assay: Effect on Cdk6 mRNA expression in human MDA-MB-231 cells assessed as ratio of Cdk6 to GAPDH expression level at 5 uM after 24 hrs by RT-PCR method (reference value: 1.37); format: functional
property label: Ratio
Form: value (number only, do not type unit).

Ask | Requested field: Ratio. Item: CO[C@@H]1C(=O)N(C/C(C#N)=C/c2ccccc2)[C@@H]1c1ccc(C)cc1
Reply | 0.51

Ask | What about CO[C@@H]1C(=O)N(C/C(C#N)=C/c2ccccc2)[C@@H]1c1ccc(F)cc1 ?
Reply | 1.3

Ask | Try this compound too: CCOC(=O)/C(=C/c1ccccc1)CN1C(=O)[C@@H](OC)[C@H]1c1ccccc1Br
Reply | 0.19

Ask | Can you check COc1cc2c(c(OC)c1OC)-c1ccc(OC)c(=O)cc1[C@@H](NC(C)=O)CC2 [COLCHICINE] next?
Reply | 1.56

###

experiment: Antiproliferative activity against human MDA-MB-231 cells after 48 hrs by MTT assay; format: functional, cell-based; details: MDA-MB-231, 48 h
Would you kindly list IC50 for each of these compounds?
Only the number, expressed in µM, is required.

Ask | Quick check: IC50 of CO[C@@H]1C(=O)N(C/C(C#N)=C/c2ccccc2)[C@@H]1c1ccc(C)cc1 ?
Reply | 9.27

Ask | Repeat with COC(=O)/C(=C/c1ccccc1)CN1C(=O)[C@@H](OC)[C@H]1c1cccc(C(F)(F)F)c1
Reply | 18.2

Ask | Please answer likewise for COc1ccc(OC)c([C@@H]2[C@H](OC)C(=O)N2C/C(C#N)=C/c2ccccc2)c1
Reply | 23.4

Ask | How about COC(=O)/C(=C/c1ccccc1)CN1C(=O)[C@@H](OC)[C@H]1c1ccc(Cl)cc1 ?
Reply | 15.6

Ask | Param item: CO[C@@H]1C(=O)N(C/C(C#N)=C/c2ccccc2)[C@@H]1c1ccc(F)cc1
Reply | 9.24

###

test: Antiproliferative activity against human mammary epithelial cells after 48 hrs by MTT assay; type: cell-based, Epithelial cell; details: epithelial cell
property label: IC50

Solved entries (count: 4):
sample smiles	endpoint value
CCOC(=O)/C(=C/c1ccccc1)CN1C(=O)[C@@H](OC)[C@H]1c1cccc([N+](=O)[O-])c1	Non-Toxic
CO[C@@H]1C(=O)N(C/C(C#N)=C/c2ccccc2)[C@@H]1c1ccc(C)cc1	Non-Toxic
CO[C@@H]1C(=O)N(C/C(C#N)=C/c2ccccc2)[C@@H]1c1ccc(Br)cc1	Non-Toxic
CO[C@@H]1C(=O)N(C/C(C#N)=C/c2ccccc2)[C@@H]1c1ccccc1Br	Non-Toxic

Ask | Name the reported IC50 value associated with the compound CO[C@@H]1C(=O)N(C/C(C#N)=C/c2ccccc2)[C@@H]1c1cccc(C)c1
Reply | Non-Toxic

Ask | Now consider COC(=O)/C(=C/c1ccccc1)CN1C(=O)[C@@H](OC)[C@H]1c1ccc(OC)cc1 .
Reply | Non-Toxic

###

tested on: MCF7; experiment: Induction of apoptosis in human MCF7 cells assessed as necrotic cells at 5 uM after 24 hrs by Annexin V-FITC/propidium iodide staining based flow cytometry (reference value: 3.7%); type: functional
property label: Activity (%)
Response body: numeric value in %, unit text excluded.

Ask | Could you tell me which Activity is on file for CCOC(=O)/C(=C/c1ccccc1)CN1C(=O)[C@@H](OC)[C@H]1c1ccccc1Br ?
Reply | 13.1

Ask | Next record, please: COc1cc2c(c(OC)c1OC)-c1ccc(OC)c(=O)cc1[C@@H](NC(C)=O)CC2
Reply | 6.5

Ask | Try the compound CO[C@@H]1C(=O)N(C/C(C#N)=C/c2ccccc2)[C@@H]1c1ccc(F)cc1
Reply | 6.9

Ask | Next up: CO[C@@H]1C(=O)N(C/C(C#N)=C/c2ccccc2)[C@@H]1c1ccc(C)cc1
Reply | 1.9
